- System Name: T1, monkey MSR1 extracellular domain expressed with a N-terminal hexahistidine-myc-myc tag (HMM-mfMSR1) (monkey (Macaca fascicularis))
- T1 chain: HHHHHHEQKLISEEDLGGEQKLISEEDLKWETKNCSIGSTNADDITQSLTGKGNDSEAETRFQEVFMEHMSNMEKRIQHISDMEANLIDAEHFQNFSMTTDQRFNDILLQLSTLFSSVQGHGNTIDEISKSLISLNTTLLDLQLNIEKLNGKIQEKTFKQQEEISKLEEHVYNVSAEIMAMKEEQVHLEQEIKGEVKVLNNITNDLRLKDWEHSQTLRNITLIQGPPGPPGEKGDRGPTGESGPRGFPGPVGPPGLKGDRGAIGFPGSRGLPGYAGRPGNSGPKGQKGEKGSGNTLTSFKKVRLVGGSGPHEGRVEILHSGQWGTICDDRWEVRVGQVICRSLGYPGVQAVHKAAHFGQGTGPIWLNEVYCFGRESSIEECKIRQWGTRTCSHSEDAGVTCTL
- Experiment: SPR Biacore, 37 C, antibody captured
Measurement Name: kon (M⁻¹ s⁻¹)
Please respond with the number in M⁻¹ s⁻¹ and leave the unit unwritten.

Example entries and their recorded answers appear below.
Binder | kon, M⁻¹ s⁻¹
H1H27747P-N297Q (antibody, V domains shown, Human IgG1 Fc with N297Q point mutation) VH: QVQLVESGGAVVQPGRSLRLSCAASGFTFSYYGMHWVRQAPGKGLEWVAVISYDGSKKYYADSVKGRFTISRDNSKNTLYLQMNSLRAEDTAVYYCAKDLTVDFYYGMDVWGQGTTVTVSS VL: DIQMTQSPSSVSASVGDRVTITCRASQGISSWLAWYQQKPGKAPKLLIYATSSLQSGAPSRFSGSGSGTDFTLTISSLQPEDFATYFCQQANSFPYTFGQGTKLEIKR | 657000
H1H27729P-N297Q (antibody, V domains shown, Human IgG1 Fc with N297Q point mutation) VH: QVQLVESGGGLVKPGGSLRLSCAASGFIFSDYYMSWIRQAPGKGLEWVSYISSSGTTIYGDSVKGRFTMSRDNAKNSLYLQMNSLRAEDTAVYYCARNYALFDYWGQGTLVTVSS VL: DIQMTQSPSSLSASVGDRVTITCQASQDISKYLNWYQQKPGKAPKLLIYYTSNLETGVPSRFSGSGSGTDFTFTISSLQPEDIATYYCHQSDYLPFTFGPGTKVDIKR | 407000

Ask: In one line, give reported kon of the entry H1H27731P-N297Q (antibody, V domains shown, Human IgG1 Fc with N297Q point mutation) VH: QLQLQESGPGLVKPSETLSLTCTVSGGSISRISYYWGWIRQPPGKGLEWIGSIYDSGSTYYNPSLKSRVTISIDTSKNQFSLKLSSVTAADTAVYYCVRYSSSSAFAFDYWGQGTLVTVSS VL: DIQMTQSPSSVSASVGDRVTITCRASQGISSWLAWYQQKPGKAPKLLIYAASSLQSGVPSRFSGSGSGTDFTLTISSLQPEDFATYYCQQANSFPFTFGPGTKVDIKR .
Result: 278000

Ask: In one line, give reported kon of the entry H1H27739P-N297Q (antibody, V domains shown, Human IgG1 Fc with N297Q point mutation) VH: EVQLVESGGGLVQPGGSLRLSCTASGFTFSSYAMSWVRQAPGKGLEWVSAISGTGSSTYFTDSVKGRFAISRDNSKNTLYLQMNSLRAEDTAVYYCAKDGEWLSTVTLFDYWGQGTLVTVSS VL: EIVMTQSPATLSVSPGERATLSCRASQSVSSNLAWYQQKPGQAPRLLIYGASTRATGIPARFSGSGSGTDFTLTISSLQSEDFALYYCQQYFIWPPHPTFGPGTKVDIKR .
Result: 2.25e+06

Ask: In one line, give reported kon of the entry H1H27754P-N297Q (antibody, V domains shown, Human IgG1 Fc with N297Q point mutation) VH: EVQLVESGGGLVQPGGSLRLSCAASGFTFRTYAMTWVRQAPGKGLDWVSAITGDGGNTYYADSVKGRFTISRDNSKNTLYLQMNSLRAEDTAIYYCAKDQRFSFALYYFDYWGQGTLVTVSS VL: DIQMTQSPSSVSASVGDRVTITCRASQGISSWLAWYQQKPGNAPKLLIYAAFSLQSGVPSRFSGSGSGTDFTLTISSLQPEDFATYYCQQANNFPWTFGQGTKVEIKR .
Result: 701000

Ask: In one line, give reported kon of the entry H1H27734P-N297Q (antibody, V domains shown, Human IgG1 Fc with N297Q point mutation) VH: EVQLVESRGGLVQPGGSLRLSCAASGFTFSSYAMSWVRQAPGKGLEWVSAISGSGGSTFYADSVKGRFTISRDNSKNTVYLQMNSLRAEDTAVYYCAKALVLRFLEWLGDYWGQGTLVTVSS VL: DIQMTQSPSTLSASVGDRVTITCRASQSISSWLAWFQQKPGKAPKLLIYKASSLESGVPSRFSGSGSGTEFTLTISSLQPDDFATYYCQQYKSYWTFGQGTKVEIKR .
Result: 949000
